These data points were gathered from patent US12692269B2.

TARGET_DESC: TEAD1 TAZ (amino acids 13-57) (Homo sapiens)
Sequence (P28347 167-426 limits assumed): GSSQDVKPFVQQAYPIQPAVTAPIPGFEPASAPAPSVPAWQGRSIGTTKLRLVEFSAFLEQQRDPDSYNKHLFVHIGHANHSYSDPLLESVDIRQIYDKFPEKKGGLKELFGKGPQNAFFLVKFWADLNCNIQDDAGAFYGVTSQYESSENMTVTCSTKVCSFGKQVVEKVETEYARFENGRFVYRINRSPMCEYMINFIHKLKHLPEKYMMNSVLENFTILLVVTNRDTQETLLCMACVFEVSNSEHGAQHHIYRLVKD
ASSAY_PROCEDURE: TEAD1-TAZ HTRF (TR-FRET) protein-protein interaction assay
ASSAY_SETUP: TEAD1-TAZ HTRF, TR-FRET 665 nm/615 nm; read-out: TEAD1 TAZ HTRF combined: EC50
PROPERTY_LABEL: EC50 (nM)
Numeric only. Scale: nM

{"MOLECULE": "Cc1nccnc1-c1nn2c(=O)cc(-c3ccc(C4CCCCC4)cc3)[nH]c2c1C(=O)N(C)C [Compound 20]", "TARGET_DESC": "TEAD1 TAZ (amino acids 13-57) (Homo sapiens)", "EC50, nM": 50}
{"MOLECULE": "CN(C)C(=O)c1nn2c(=O)cc(-c3ccc(C4CCCCC4)c(F)c3)[nH]c2c1C(=O)N1CC(CF)C1 [Compound 4]", "TARGET_DESC": "TEAD1 TAZ (amino acids 13-57) (Homo sapiens)", "EC50, nM": 50}
{"MOLECULE": "CCCCCCC/C=C/c1cc(=O)n2nc(-c3nccnc3C)c(C(=O)N3C[C@H](CF)[C@@H]3C)c2[nH]1 [Compound 70]", "TARGET_DESC": "TEAD1 TAZ (amino acids 13-57) (Homo sapiens)", "EC50, nM": 20}

stdin: Give the measured EC50 of O=C(c1c(-c2nccnc2C(F)(F)F)nn2c(=O)cc(-c3ccc(C4CCCCC4)cc3)[nH]c12)N1CC(CF)C1 [Compound 7] .
stdout: 200

stdin: I am curious: what EC50 value has been reported for CC1CCN1C(=O)c1nn2c(=O)cc(-c3ccc(C4CCCCC4)cc3)[nH]c2c1C(=O)N1CC(CF)C1 (single isomer, unassigned) [Enantiomer B, Example 33] ?
stdout: 100

stdin: Quick one: EC50 for CCn1cnc(-c2nn3c(=O)cc(-c4ccc(C5CCCCC5)cc4)[nH]c3c2C(=O)N2CC(CF)C2)c1 [Compound 31] ?
stdout: 120

stdin: Param item = O=C(c1nn2c(=O)cc(-c3ccc(C4CCCCC4)cc3)[nH]c2c1C(=O)N1CC(CF)C1)N1CCCC1 [Compound 36] ; retrieve measured EC50.
stdout: 80
